FYI, the data here is from patent US20220071996A1.

test: solubility of branaplam in selected excipients; type: physicochemical; details: aqueous excipient solution, 25 °C, pH 4, aqueous with cosolvent or surfactant or cyclodextrin, thermodynamic from solid, in Tween 80 1.5% (w/w), RT; read-out: Solubility (mg/mL) RT
recorded_endpoint: solubility at 24 h (mg/mL)
Numbers only, in mg/mL.

Given item "CC1(C)CC(Oc2ccc(-c3ccc(-c4cn[nH]c4)cc3O)nn2)CC(C)(C)N1" , the value recorded as its solubility at 24 h is 0.41

====

Assay: solubility of branaplam in selected excipients
Format: physicochemical
Details: aqueous excipient stock solution, 25 °C, pH 4, aqueous with cosolvent or surfactant or cyclodextrin, thermodynamic from solid, in Glycerol 25.0% (w/w), RT; read-out: Solubility (mg/mL) RT
Procedure: Solubility of branaplam was evaluated in excipients, other than cyclodextrin, such as Cremophor RH40, Tween 80, PG, PEG300, and glycerol. These excipients and concentrations were selected as they are suitable for paediatric formulations. […] Solubility of branaplam was evaluated in excipients, other than cyclodextrin, such as Cremophor RH40, Tween 80, PG, PEG300, and glycerol. […]
recorded_endpoint: solubility at 24 h (mg/mL)
One number for each entry, in mg/mL.

Kindly note the recorded solubility at 24 h for CC1(C)CC(Oc2ccc(-c3ccc(-c4cn[nH]c4)cc3O)nn2)CC(C)(C)N1 [branaplam] , which is 0.38

====

assay: solubility of branaplam in selected excipients; type: physicochemical; conditions: aqueous excipient stock solution, 2 °C, pH 4, aqueous with cosolvent or surfactant or cyclodextrin, thermodynamic from solid, in Tween 80 0.8% (w/v), pH 4.0 buffer, 2-8° C.; read-out: Solubility (mg/mL) 2-8° C.
recorded_endpoint: solubility at 24 h (mg/mL)
One number for each entry, in mg/mL.

For this molecule ( CC1(C)CC(Oc2ccc(-c3ccc(-c4cn[nH]c4)cc3O)nn2)CC(C)(C)N1 [branaplam] ), measured solubility at 24 h is 0.22

====

assay: solubility of branaplam in selected excipients; type: physicochemical; conditions: aqueous excipient solution, 2 °C, pH 4, aqueous with cosolvent or surfactant or cyclodextrin, thermodynamic from solid, in PEG 400 25.0% (w/w), 2-8° C.; read-out: Solubility (mg/mL) 2-8° C.
recorded_endpoint: solubility at 24 h (mg/mL)
Numbers only, in mg/mL.

Noted for "CC1(C)CC(Oc2ccc(-c3ccc(-c4cn[nH]c4)cc3O)nn2)CC(C)(C)N1" : its solubility at 24 h reads 0.93

====

experiment: solubility of branaplam in selected excipients; type: physicochemical; settings: aqueous excipient stock solution, 25 °C, pH 4, aqueous with cosolvent or surfactant or cyclodextrin, thermodynamic from solid, in Cremophor RH 40 3.5% (w/w), RT; read-out: Solubility (mg/mL) RT
recorded_endpoint: solubility at 24 h (mg/mL)
One number for each entry, in mg/mL.

The reported value for "CC1(C)CC(Oc2ccc(-c3ccc(-c4cn[nH]c4)cc3O)nn2)CC(C)(C)N1" in terms of solubility at 24 h is 0.53

====

assay: solubility of branaplam in selected excipients; assay type: physicochemical; conditions: aqueous excipient stock solution, 2 °C, pH 4, aqueous with cosolvent or surfactant or cyclodextrin, thermodynamic from solid, in Tween 80 0.5% (w/v), pH 4.0 buffer, 2-8° C.; read-out: Solubility (mg/mL) 2-8° C.
recorded_endpoint: solubility at 24 h (mg/mL)
Give bare numbers, in mg/mL.

The reported value for "CC1(C)CC(Oc2ccc(-c3ccc(-c4cn[nH]c4)cc3O)nn2)CC(C)(C)N1" in terms of solubility at 24 h is 0.16

====

test: solubility of branaplam in selected excipients; format: physicochemical; details: aqueous excipient solution, 25 °C, pH 4, aqueous with cosolvent or surfactant or cyclodextrin, thermodynamic from solid, in PEG 300 10.0% (w/w), RT; read-out: Solubility (mg/mL) RT
recorded_endpoint: solubility at 24 h (mg/mL)
Answers are plain numbers, in mg/mL.

For reference, reported solubility at 24 h for CC1(C)CC(Oc2ccc(-c3ccc(-c4cn[nH]c4)cc3O)nn2)CC(C)(C)N1 [branaplam] stands at 0.64

====

assay: solubility of branaplam in selected excipients; format: physicochemical; details: aqueous excipient solution, 2 °C, pH 4, aqueous with cosolvent or surfactant or cyclodextrin, thermodynamic from solid, in PEG 400 5.0% (w/w), 2-8° C.; read-out: Solubility (mg/mL) 2-8° C.
recorded_endpoint: solubility at 24 h (mg/mL)
One number for each entry, in mg/mL.

Lookup result for CC1(C)CC(Oc2ccc(-c3ccc(-c4cn[nH]c4)cc3O)nn2)CC(C)(C)N1 [branaplam] ; measured solubility at 24 h: 0.21

====

test: solubility of branaplam in selected excipients; format: physicochemical; settings: aqueous excipient solution, 2 °C, pH 4, aqueous with cosolvent or surfactant or cyclodextrin, thermodynamic from solid, in Tween 80 0.5% (w/w), 2-8° C.; read-out: Solubility (mg/mL) 2-8° C.
recorded_endpoint: solubility at 24 h (mg/mL)
Numbers only, in mg/mL.

"CC1(C)CC(Oc2ccc(-c3ccc(-c4cn[nH]c4)cc3O)nn2)CC(C)(C)N1" yielded solubility at 24 h of 0.16

====

assay: solubility of branaplam in selected excipients; format: physicochemical; settings: aqueous excipient solution, 25 °C, pH 4, aqueous with cosolvent or surfactant or cyclodextrin, thermodynamic from solid, in PEG 400 10.0% (w/w), RT; read-out: Solubility (mg/mL) RT
recorded_endpoint: solubility at 24 h
Phrase the answer as number then unit, nothing more needed.

Entry "CC1(C)CC(Oc2ccc(-c3ccc(-c4cn[nH]c4)cc3O)nn2)CC(C)(C)N1" ; solubility at 24 h = 0.63 mg/mL

====

assay: solubility of branaplam in selected excipients; format: physicochemical; conditions: aqueous excipient solution, 25 °C, pH 4, aqueous with cosolvent or surfactant or cyclodextrin, thermodynamic from solid, in PEG 400 5.0% (w/w), RT; read-out: Solubility (mg/mL) RT
recorded_endpoint: solubility at 24 h (mg/mL)
Numbers only, in mg/mL.

# solubility at 24 h (molecule: "CC1(C)CC(Oc2ccc(-c3ccc(-c4cn[nH]c4)cc3O)nn2)CC(C)(C)N1" ) is 0.39

====

test: solubility of branaplam in selected excipients; assay type: physicochemical; conditions: Cremophor RH 40 7.0% (w/v) aqueous solution in pH 4.0 buffer, 2 °C, pH 4, aqueous with cosolvent or surfactant or cyclodextrin, thermodynamic from solid, in Cremophor RH 40 7.0% (w/v), pH 4.0 buffer, 2-8° C.; read-out: Solubility (mg/mL) 2-8° C.
recorded_endpoint: solubility at 24 h (mg/mL)
Numbers only, in mg/mL.

Lab note: "CC1(C)CC(Oc2ccc(-c3ccc(-c4cn[nH]c4)cc3O)nn2)CC(C)(C)N1" gave solubility at 24 h of 0.71

====

Experiment: solubility of branaplam in selected excipients
Type: physicochemical
Conditions: 2 °C, pH 4, aqueous with cosolvent or surfactant or cyclodextrin, thermodynamic from solid, in Cremophor RH 40 15.0% (w/v), pH 4.0 buffer, 2-8° C.; read-out: Solubility (mg/mL) 2-8° C.
Procedure: Solubility of branaplam was evaluated in excipients, other than cyclodextrin, such as Cremophor RH40, Tween 80, PG, PEG300, and glycerol. These excipients and concentrations were selected as they are suitable for paediatric formulations. […] Solubility of branaplam was evaluated in excipients, other than cyclodextrin, such as Cremophor RH40, Tween 80, PG, PEG300, and glycerol. […]
recorded_endpoint: solubility at 24 h (mg/mL)
Answers are plain numbers, in mg/mL.

// recorded solubility at 24 h for "CC1(C)CC(Oc2ccc(-c3ccc(-c4cn[nH]c4)cc3O)nn2)CC(C)(C)N1" : 1.19

====

assay: solubility of branaplam in selected excipients; assay type: physicochemical; conditions: aqueous excipient stock solution, 2 °C, pH 4, aqueous with cosolvent or surfactant or cyclodextrin, thermodynamic from solid, in Tween 80 5.0% (w/v), pH 4.0 buffer, 2-8° C.; read-out: Solubility (mg/mL) 2-8° C.
recorded_endpoint: solubility at 24 h (mg/mL)
One number for each entry, in mg/mL.

For record "CC1(C)CC(Oc2ccc(-c3ccc(-c4cn[nH]c4)cc3O)nn2)CC(C)(C)N1" the listed solubility at 24 h is 0.73

====

test: solubility of branaplam in selected excipients; format: physicochemical; conditions: aqueous excipient stock solution, 25 °C, pH 4, aqueous with cosolvent or surfactant or cyclodextrin, thermodynamic from solid, in PEG 300 10.0% (w/v), pH 4.0 buffer, RT; read-out: Solubility (mg/mL) RT
recorded_endpoint: solubility at 24 h
A complete answer gives the number followed by the unit.

Record CC1(C)CC(Oc2ccc(-c3ccc(-c4cn[nH]c4)cc3O)nn2)CC(C)(C)N1 [branaplam] , field solubility at 24 h: 0.64 mg/mL

====

assay: solubility of branaplam in selected excipients; assay type: physicochemical; conditions: glycerol 25.0% (w/v) aqueous solution in pH 4.0 buffer, 2 °C, pH 4, aqueous with cosolvent or surfactant or cyclodextrin, thermodynamic from solid, in Glycerol 25.0% (w/v), pH 4.0 buffer, 2-8° C.; read-out: Solubility (mg/mL) 2-8° C.
recorded_endpoint: solubility at 24 h (mg/mL)
Give bare numbers, in mg/mL.

"CC1(C)CC(Oc2ccc(-c3ccc(-c4cn[nH]c4)cc3O)nn2)CC(C)(C)N1" yielded solubility at 24 h of 0.37
